measure: melting point

> print(dat)
                                   compound        measure          value
1  O=C(Nc1ccc(C(F)(F)F)cc1)C1=NN(c2ccc(Cl)cc2)C(c2ccco2)C1 (stereo unspecified)  melting point  167 to 171 °C
2  N#Cc1ccc(-c2ccc(S(=O)(=O)NCc3ccncc3)cc2)cc1  melting point  198 to 202 °C
3  CCC(=O)N1CCC(COc2cccc3nc(C)c(C(=O)O)c(N)c23)CC1  melting point  168 to 170 °C

Briefly, melting point measured for O=C1CCCC12CCOc1ccc(F)cc12 (stereo unspecified) : 49 to 51 °C

Briefly, melting point measured for "Cc1nc2n(c(=O)c1CCN1CCC(C(=O)c3ccc(F)cc3)CC1)CCCN2Cc1ccccc1" : 126 °C

====

measure: melting point

> print(dat)
                                smiles.repr          value
1         Nc1nc(-c2ccc(CN3CCCCCC3)s2)n[nH]1  160 to 161 °C
2  COc1cc(N2CCCN(C3CCN(C)CC3)CC2)ccc1Nc1ncc2ccc(-c3ccccc3OC)n2n1    71 to 80 °C
3  COc1ccc(COc2ccc(NC(C)=O)cc2C(=O)C=Cc2ccc(OCc3ccccc3)cc2)cc1  201 to 202 °C
4  CC(C)(C)OC(=O)Nc1cc(N2CCC3(CC2)OCCO3)c(I)cc1[N+](=O)[O-]  132 to 134 °C

Briefly, melting point measured for "C/C(=C\c1cc(F)cc(F)c1)C(=O)O" : 148 °C

====

measure: melting point

# count of solved cases: 3
> print(dat)
                                   molecule            value
1  Fc1ccc(C(OP2OCCO2)(c2ccc(F)cc2)c2ccccc2F)cc1    163 to 164 °C
2      CC1(C)C2CC[C@@]1(N1CCCCC1)[C@H](O)C2  88.5 to 89.5 °C
3                CC(=O)Nc1ccc(P(=O)(O)O)cc1           228 °C

Briefly, melting point measured for "O=C(c1ccccc1)c1cc(-c2ccncc2)sc1-c1ccncc1" : 168 to 170 °C

Briefly, melting point measured for "Nc1ccc(Cl)cc1C(=O)NCCCn1ccnc1" : 155 to 157 °C

Briefly, melting point measured for "Cc1noc(NS(=O)(=O)c2ccccc2-c2ccsc2)c1C" : 147 to 148 °C

Briefly, melting point measured for CC(C)P1(=O)c2ccccc2CN1C (configuration not stated) : 72 to 74 °C

Briefly, melting point measured for "N#Cc1nc2cccc(O)c2s1" : 225 °C

Briefly, melting point measured for "Cc1c(Cl)cc(C(=O)C=[N+]=[N-])cc1S(N)(=O)=O" : 174 to 176 °C

Briefly, melting point measured for CC(=O)OCC(=O)C1(OC(C)=S)CCC2C3CC(C)C4=CC(=O)C=CC4(C)C3C(O)CC21C (configuration not stated) : 149 to 151 °C

Briefly, melting point measured for "O=C1c2ccccc2C(=O)N1CCc1cccc(F)c1" : 122 to 125 °C

====

This section presents compounds with their documented melting point values.

Briefly, melting point measured for "CCC(CC)(CC(=O)Nc1cccc(SCc2ccc3cc(F)ccc3n2)c1)C(=O)O" : 117 to 120 °C

Briefly, melting point measured for "O=c1c(-c2cccc(C(F)(F)F)c2Cl)nn(CCCCC(F)(F)F)c2cccc(Cl)c12" : 137 to 138 °C

Briefly, melting point measured for "CCCC(=NOc1ccc(Cl)cc1)c1cc(Cl)ccc1NS(=O)(=O)C(F)(F)F" : 62.5 to 64.5 °C

Briefly, melting point measured for "CCCCCCCCCCOc1ccc(-c2ccc(OCCCCCCCCCC)c(OCCCCCCCCCC)c2)cc1OCCCCCCCCCC" : 85 to 86 °C

Briefly, melting point measured for "CCc1nn(C(=O)NS(=O)(=O)c2c(C)cccc2Cl)c(=O)n1C" : 176 °C

Briefly, melting point measured for "[N-]=[N+]=NCCCc1cn(S(=O)(=O)c2c(Cl)nc3sccn23)c2ccc(F)cc12" : 84 to 86 °C

Briefly, melting point measured for "CCOC(=O)c1ccc(N2CCN(CC(=O)c3ccc(Cl)cc3)CC2)cc1" : 150 to 152 °C

Briefly, melting point measured for "O=C1c2cc(OC(F)F)ccc2CN1c1ccc2c(c1)CCC2" : 137 to 139 °C

Briefly, melting point measured for "Cc1cc(C)nc(C(=O)n2cc(CC(=O)O)c3ccc(Cl)cc32)c1" : 219 to 220 °C

====

This section presents compounds with their documented melting point values.

> print(dat)
                                   compound          value
1  CCOC(=O)C1=C(CCCc2ccccc2)NC(C)=C(C(=O)OC)C1c1cccc([N+](=O)[O-])c1 (configuration not stated)  125 to 127 °C

Briefly, melting point measured for "Cc1cc(O)ccc1-c1noc2cc(O)ccc12" : 229 to 231 °C

Briefly, melting point measured for "BrCc1noc2c1ccc1ccccc12" : 100 to 103 °C

Briefly, melting point measured for "O=c1[nH]c2ccccc2n1CCCN1CC=C(n2c(=O)[nH]c3ccccc32)CC1" : 207 °C

====

This section presents compounds with their documented melting point values.

# count of solved cases: 3
> print(dat)
                                   compound        measure          value
1  COC(=O)CCCCCCCCOC1OC(CO)C(O)C(OC2OC(CO)C(O)C(O)C2O)C1OC1OC(C)C(O)C(O)C1O (stereo not given)  melting point  147 to 150 °C
2                COc1nc(NC(C)C)nc(NC2CC2)n1  melting point    77 to 80 °C
3  CC(=O)C1(Nc2ccc(C)cc2)CCN(CCc2ccccc2)CC1  melting point         134 °C

Briefly, melting point measured for NC(=S)C(c1ccccc1)c1cccnn1 (stereo not given) : 161 to 163 °C

Briefly, melting point measured for "CCOC(=O)c1cc(S(N)(=O)=O)c(Cl)cc1NCc1ccco1" : 163 to 165 °C

====

This section presents compounds with their documented melting point values.

> print(dat)
                                   compound          value
1     COC(=O)c1cc(O)cc2cc(-c3ccc(O)cc3)oc12  236 to 238 °C
2                   CCc1cccc(CC)c1NCC(=O)NN    71 to 73 °C
3  CCCCCCCCNC(=O)c1cc(C(C)(C)C)c(O)c(C(C)(C)C)c1  133 to 135 °C
4  O=C(CCc1c[nH]c2ccccc12)NCC1CNc2ccccc2O1 (stereo not given)  145 to 146 °C
5  CCOc1nc2cccc(C(=O)OC(C)OC(=O)OC3CCCCC3)c2n1Cc1ccc(-c2ccccc2-c2nc(=O)o[nH]2)cc1 (stereo not given)  108 to 109 °C

Briefly, melting point measured for "O=C(O)C=Cc1ccc2ccccc2c1" : 207 to 208 °C

Briefly, melting point measured for "COC(=O)c1ccc(NC(=O)NCc2cccc(OC(C)=O)c2)cc1Cl" : 113 to 114 °C

Briefly, melting point measured for Cn1cncc1C(O)c1ccc2[nH]c(=O)cc(-c3cccc(Cl)c3)c2c1 (stereo not given) : 186 °C

Briefly, melting point measured for "CCC(=O)Cc1cc(OC)ccc1NC(=O)OC(C)(C)C" : 80 to 81 °C

Briefly, melting point measured for "O=C(Nc1cccc(C(F)(F)F)c1F)c1cccnc1NCc1ccc(=O)[nH]c1" : 219 to 222 °C

====

measure: melting point

> print(dat)
                                   molecule          value
1  CCN(CC)CCOC(=O)c1nn(-c2ccc(Cl)cc2)c2c1CCc1ccccc1-2  102 to 103 °C

Briefly, melting point measured for "CCOC(=O)Nc1ccc2c(c1)c(N)nn2C(=O)OCC" : 173 to 174 °C

Briefly, melting point measured for "O=[N+]([O-])c1ccc(Oc2ccc(C3(c4ccc(Oc5ccc([N+](=O)[O-])cc5)cc4)CCC(c4ccccc4)CC3)cc2)cc1" : 216 to 218 °C

Briefly, melting point measured for "Oc1ncnc2c(F)ccc(F)c12" : 257 to 258 °C

Briefly, melting point measured for "Cc1c(Sc2ccc(Cl)cc2)c2cc(NS(C)(=O)=O)ccc2n1CC(=O)O" : 214 °C

Briefly, melting point measured for COc1ccc(C2C(C(=O)/C=C/c3ccc(OCc4ccccc4)c(OC)c3)C(=O)CC(c3ccc(OCc4ccccc4)cc3)C2[N+](=O)[O-])cc1 (stereo not drawn) : 76 to 78 °C

Briefly, melting point measured for CC(=O)OC1CSC(Oc2cncc(-c3ccco3)c2)C(OC(C)=O)C1OC(C)=O (stereo not drawn) : 184 °C

Briefly, melting point measured for CC12C=CC(=O)C=C1CCC1C3=CC(O)C(O)(C(=O)CO)C3(C)CC(O)C12 (stereo not drawn) : 240 to 242 °C

Briefly, melting point measured for CCOC(=O)c1cn(C2CC2)c2c(F)c(C(C#N)C(=O)OCC)c(F)c(F)c2c1=O (stereo not drawn) : 98 to 100 °C

Briefly, melting point measured for CN1C(=O)C(NC(=O)C(CC2CC2)C2(C(N)=O)CC=CC2)N=C(c2ccccc2)c2ccccc21 (stereo not drawn) : 238 to 240 °C

Briefly, melting point measured for CC(C)(CO)C(=O)C(Oc1ccc(Cl)cc1)n1cncn1 (stereo not drawn) : 110 to 111 °C

Briefly, melting point measured for "Nc1c(F)c(N2CCNCC2)c(F)c2c1c(=O)c(C(=O)O)cn2C1CC1" : 257 to 259 °C

Briefly, melting point measured for "O=[N+]([O-])c1cc(C2OCCCO2)ccc1O" : 70 to 71 °C

Briefly, melting point measured for "O=c1cc(C(F)(F)F)c2ccc(NCc3ccccc3)cc2o1" : 136 to 137 °C

Briefly, melting point measured for "CCN(CC)c1ccc(C(=O)c2ccccc2)c(O)c1" : 46 to 48 °C

Briefly, melting point measured for CC1CN(c2cccc(C(F)(F)F)c2)N=C1NC(=O)C(F)(F)F (stereo not drawn) : 121 to 122 °C

Briefly, melting point measured for "COC(=O)c1cc(-c2cccc([N+](=O)[O-])c2)cc2c1OCC2" : 53 to 57 °C

Briefly, melting point measured for COc1c(N2CCC(n3cc(C)nn3)C2)c(F)c(N)c2c(=O)c(C(=O)O)cn(C3CC3)c12 (stereo not drawn) : 256 °C

Briefly, melting point measured for CC(C(=O)NO)S(=O)Cc1ccc(Cl)cc1 (stereo not drawn) : 132 to 133 °C

Briefly, melting point measured for c1ccc(-c2cc3n(n2)CCNC3CC2CCCCC2)cc1 (racemic) : 128 to 130 °C

Briefly, melting point measured for "O=C1NCCN1CCN1CCC(c2noc3cc(F)ccc23)CC1" : 137 to 141 °C

Briefly, melting point measured for CCCC(Cl)(Cl)C(NC(=O)c1ccc(Cl)cc1)NC(=C[N+](=O)[O-])Nc1cccnc1 (stereo not drawn) : 185 to 186 °C
